# run_description: Cytotoxicity assessment in vitro (MTT assay)
# Assay type: cell-based
# details: human, HepG2 cells; c = 10 µM, 24 h, MTT; read-out: HepG2 % of cell viability compared to non-treated control (100%)
readout_type: viability at 24 h, 10 µM (%)

compound: COc1cccc2c1C(=O)c1c(O)c3c(c(O)c1C2=O)C[C@@](O)(C(=O)CO)C[C@@H]3O[C@H]1C[C@H](N)[C@H](O)[C@H](C)O1 [Doxorubicine, reference compound]
readout_type: viability at 24 h, 10 µM
unit_label: %
quantitative_result: 66

###

# Test system: Huh-7 cell line
# run_description: Huh-7 cell confluency by alamarBlue assay during hepatic-stage test
# Assay type: cell-based
# details: human, 46 h, 1 µM, pH 7
readout_type: CELL CONFLUENCY Ø screening

molecule: COc1ccc(C(=O)OC2CN3Cc4cc5c(cc4C24C=CC(OC)CC34)OCO5)cc1OC (centres unmarked) [29h, 11-O-(3,4-dimethoxybenzoyl)haemanthamine]
readout_type: CELL CONFLUENCY Ø screening
quantitative_result: 101.7
//
molecule: CCC(=O)O[C@@H]1CN2Cc3c(cc4c(c3OC)OCO4)[C@@]13C=C[C@H](OC)C[C@@H]23 [28b, 11-O-Propionylambelline]
readout_type: CELL CONFLUENCY Ø screening
quantitative_result: 98.41
//
molecule: CCOc1cc(OCC)cc(C(=O)O[C@@H]2CN3Cc4c(cc5c(c4OC)OCO5)[C@@]24C=C[C@H](OC)C[C@@H]34)c1 [28o, 11-O-(3,5-Diethoxybenzoyl)ambelline]
readout_type: CELL CONFLUENCY Ø screening
quantitative_result: 97.15
//
molecule: COC1C=CC23c4cc5c(cc4CN(CC2OC(=O)c2cccc([N+](=O)[O-])c2)C3C1)OCO5 (centres unmarked) [29j, 11-O-(3-nitrobenzoyl)haemanthamine]
readout_type: CELL CONFLUENCY Ø screening
quantitative_result: 100.8
//
molecule: COc1c2c(cc3c1OCO3)[C@]13C=C[C@H](OC)C[C@H]1N(C2)C[C@H]3OC(=O)c1ccc([N+](=O)[O-])cc1 [28q, 11-O-(4-Nitrobenzoyl)ambelline]
readout_type: CELL CONFLUENCY Ø screening
quantitative_result: 102

###

# Test system: Huh-7 cell line
# run_description: Huh-7 cell confluency by alamarBlue assay during hepatic-stage test
# Type: cell-based
# details: human, 46 h, 10 µM, pH 7

compound: COc1c2c(cc3c1OCO3)[C@]13C=C[C@H](OC)C[C@H]1N(C2)C[C@H]3OC(=O)c1ccc([N+](=O)[O-])cc1 [28q, 11-O-(4-Nitrobenzoyl)ambelline]
tested_target: Huh-7 cell line
CELL CONFLUENCY Ø screening: 102.2
//
compound: COc1cc(OC)cc(C(=O)O[C@@H]2CN3Cc4c(cc5c(c4OC)OCO5)[C@@]24C=C[C@H](OC)C[C@@H]34)c1 [28m, 11-O-(3,5-Dimethoxybenzoyl)ambelline]
tested_target: Huh-7 cell line
CELL CONFLUENCY Ø screening: 66.23
//
compound: COc1ccc(C(=O)OC2CN3Cc4cc5c(cc4C24C=CC(OC)CC34)OCO5)cc1 (stereo not shown) [29g, 11-O-(4-methoxybenzoyl)haemanthamine]
tested_target: Huh-7 cell line
CELL CONFLUENCY Ø screening: 88.51
//
compound: COC1C=CC23c4cc5c(cc4CN(CC2OC(=O)c2cccc([N+](=O)[O-])c2)C3C1)OCO5 (stereo not shown) [29j, 11-O-(3-nitrobenzoyl)haemanthamine]
tested_target: Huh-7 cell line
CELL CONFLUENCY Ø screening: 94.5

###

# Tested on: HepG2 cells
# run_description: Cytotoxicity assessment in vitro (MTT assay)
# Format: cell-based
# details: human, 24 h, 10 µM
# Method: HepG2 cells of human hepatocellular carcinoma (ATCC HB-8065; passage 20–25), purchased from Health Protection Agency Culture Collections (ECACC, Salisbury, UK), were cultured in Minimum Essential Medium Eagle supplemented with 10% v/v fetal bovine serum and 1% v/v L-glutamine solution (Sigma-Aldrich, St. Louis, MO, USA) at 37 °C in a humidified atmosphere containing 5% CO2. […] Cytotoxicity of all studied derivatives was screened at 10 μM concentration, and all samples were measured in triplicates. […]
readout_type: 3. screening of cytotoxic potential, HepG2 cell line

molecule: COc1cc(OC)cc(C(=O)O[C@@H]2CN3Cc4c(cc5c(c4OC)OCO5)[C@@]24C=C[C@H](OC)C[C@@H]34)c1 [28m, 11-O-(3,5-Dimethoxybenzoyl)ambelline]
quantitative_result: 84.39
//
molecule: COc1c2c(cc3c1OCO3)[C@]13C=C[C@H](OC)C[C@H]1N(C2)C[C@H]3OC(=O)c1ccc(Cl)c([N+](=O)[O-])c1 [28t, 11-O-(4-Chloro-3-nitrobenzoyl)ambelline]
quantitative_result: 14.19
//
molecule: COc1c2c(cc3c1OCO3)[C@]13C=C[C@H](OC)C[C@H]1N(C2)C[C@H]3OC(=O)c1cccc([N+](=O)[O-])c1 [28p, 11-O-(3-Nitrobenzoyl)ambelline]
quantitative_result: 81.93
//
molecule: COc1c2c(cc3c1OCO3)[C@]13C=C[C@H](OC)C[C@H]1N(C2)C[C@H]3OC(=O)c1ccc([N+](=O)[O-])cc1 [28q, 11-O-(4-Nitrobenzoyl)ambelline]
quantitative_result: 49.2
//
molecule: COc1ccc(C(=O)O[C@@H]2CN3Cc4c(cc5c(c4OC)OCO5)[C@@]24C=C[C@H](OC)C[C@@H]34)cc1OC [28l, 11-O-(3,4-Dimethoxybenzoyl)ambelline]
quantitative_result: 102.39
//
molecule: COc1c2c(cc3c1OCO3)[C@]13C=C[C@H](OC)C[C@H]1N(C2)C[C@H]3OC(=O)c1ccccc1 [28e, 11-O-Benzoylambelline]
quantitative_result: 87.15
//
molecule: COc1c2c(cc3c1OCO3)[C@]13C=C[C@H](OC)C[C@H]1N(C2)C[C@H]3OC(=O)C(C)C [28c, 11-O-Isobutanoylambelline]
quantitative_result: 88.22
//
molecule: CCOc1cc(OCC)cc(C(=O)O[C@@H]2CN3Cc4c(cc5c(c4OC)OCO5)[C@@]24C=C[C@H](OC)C[C@@H]34)c1 [28o, 11-O-(3,5-Diethoxybenzoyl)ambelline]
quantitative_result: 51.54
